Values were extracted from PubChem BioAssay (NCI).

Test system: HOP-92 NSCLC
test.details: NCI tumour cell line growth inhibition, 48 h
Recorded TGI, one value per entry.

C(=C\c1ccccc1)/C=N/c1nc2cc3sc(/N=C/C=C/c4ccccc4)nc3cc2s1; > 100 µM

Entry NS(=O)(=O)c1cccc(N=Cc2c(O)[nH]c3ccccc23)c1 ; TGI = > 25 µM

Entry N#Cc1c(N2CCCC2)ncn(Cc2ccccc2)c1=O ; TGI = > 100 µM

Entry C1CCC(OC2CSC2)OC1 (stereo not given) ; TGI = > 100 µM

Entry Cc1sc(/N=C/c2c[nH]c3ccccc23)c(C#N)c1C ; TGI = > 100 µM

---

Test system: MOLT-4 leukemia
test.details: NCI tumour cell line growth inhibition, 48 h
readout.name: TGI

CCOC(=O)C(=Cc1ccc(C(=O)OC)cc1)C(=O)OCC; 7.74 µM
O=c1[nH]cnc2[nH]ncc12; > 5000 µM
Cc1ccc2c(O)c(O)cc(NC(C)CCCN)c2n1 (stereo not given); 8.99 µM
CNC(=O)c1cc(NC(=O)N(CCC#N)CCN(C(=O)N[C@@H](Cc2ccccc2)C(=O)N[C@@H](CC(C)C)C(=O)NC)c2ccccc2)ccc1OC; > 100 µM

Now look at this one.
Entry c1ccc(-n2nnnc2-c2cccc3ccccc23)cc1 ; TGI = > 100 µM

---

Test system: MOLT-4 leukemia
test.details: NCI tumour cell line growth inhibition, 48 h
readout.name: TGI (µM)
Number in µM, nothing else.

O=C(Nc1ccc(Cl)cc1)c1cc(-c2ccc(Cl)cc2)c2sc(=O)[nH]c2n1; 11.8

Now look at this one.
Entry C=CCSC1=N/C(=C\c2ccccc2)C(=O)N1CC=C ; TGI = 19.1

---

Recorded GI50, one value per entry.
System: SNB-19 CNS
test.details: NCI tumour cell line growth inhibition, 48 h

Worked examples, 5 molecules total:
O=C(N/N=C/c1ccc([N+](=O)[O-])cc1)c1ccc2nc(-c3ccc(Cl)cc3)[nH]c2c1; 7.48 µM
COc1cc(-c2nc3sc4c(c3c(=O)[nH]2)CCCCCC4)cc(OC)c1OC; 1.56 µM
COc1ccc2c(c1)C(c1ccccc1Cl)=Nc1c(n[nH]c1C)N2; > 25 µM
CCOC(=O)/C=C/C(C(=O)/C=C/c1ccc(O)c(OC)c1)=C(O)\C=C\c1ccc(O)c(OC)c1; 5.14 µM
CC(=O)O/N=C1/C(c2c(O)[nH]c3cc(Br)ccc23)=Nc2ccccc21; 4.26 µM

Readout GI50 for COc1ccc(Cl)cc1NC(=O)C(Br)C(Br)C(=O)O (stereo not drawn) , test system SNB-19 CNS, was 27.9 µM

Readout GI50 for C=CC1CC12C(=O)C1OC2(C)C2C(=O)c3c(O)ccc(O)c3C(=O)C12 (stereo not drawn) , test system SNB-19 CNS, was 5.35 µM

Readout GI50 for O=C(Cc1cccc(OC(F)(F)F)c1)Nc1ccc(CCCCc2nnc(NC(=O)Cc3ccccn3)s2)nn1 , test system SNB-19 CNS, was 29.4 µM

---

Recorded TGI, one value per entry.
Tested on: SW-620 colon
test.details: NCI tumour cell line growth inhibition, 48 h

Worked examples, 4 compounds total:
[N-]=[N+]=NCc1cccc(Nc2cc(=O)[nH]c(=O)[nH]2)c1; > 100 µM
C1CCC(OC2CSC2)OC1 (stereo not given); > 100 µM
CC(CO)C1C[C@H](O)[C@@]2(C)CC(=O)C=C(CO)[C@@H]2C1 (stereo not given in full); > 100 µM
CCOC(=O)/C=C(\C(=O)OCC)n1ccc(N)nc1=O; > 100 µM

Now look at this one.
Entry COC(=O)/C=C(/C(=O)OC)c1c(C)c(C)c2c(C)cc(C)cc(C)c1-2 ; TGI = > 100 µM
